assay: soluble on expression in E. coli; label from the status in PepcDB or PDB records
parameter-measured: soluble on expression in E. coli

>>> observed("MKRLLLIIICTLGILSCGVPKEVTVPDKHLNYKDNIVLYNEKPYTGKVKLKKIAEKEQFEEGYISVKDGKLEGITDFKNDAAKTHFKFDVKSGKFNGEYILKHPLIGDFVMNFENGELKELKGKFPNDINQDLIFDKDGNVNGLIEQGGKQLDFQGGVAVKDTLKVKMFLDTETKQKLVTEVYEGDKLMAREENILLFTVKDFTEELLPVTGLQ")
"not soluble"
>>> observed("SGGPGTKSGEPLCPPLLCNQDKETLTLLIQVPRIQPQSLQGDLNPLWYKLRFSAQDLVYSFFLQFAPENKLSTTEPVISISSNNAVIELAKSPESHGHWREWYYGVNNDSLELQECSNSDQLQGKEERVNEESHLTEKEYIEHCNTPTTDSDSSIAVKALQIDSFGLVTCFQQESLDVSQMILGKSQQPESKMQSEFIKEKSATCSNEEKDNLNESVITEEKETDGDHLSSLLNKTTVHNIPGFDSIKETNMQDGSVQVIKDHVTNCAFSFQNSLLYDLD")
"soluble"
>>> observed("MLRYLLLSMYLFYIKKRRCHHFFIIVNIILSVSMQNDNLPFKITACVYKIV")
"not soluble"
>>> observed("MEVPVHPLSQDPTAAWREISKTQRVIKVTMKPPTTTVAPNKARVVCMSDTHSLTPYIKFDIPDGDIFIHAGDFTKCGQLEEVEEFNTWIGALPHRHKIVIAGNHELSFDRTFTHPFQKSKSHASSSKHTGMSILDDLPTLGNAKENLESAVQTQNVRDVLTNCRYLEDELLEIWGIQIYGSPWQPEFCRWAFNVPRGTACLDKWNQIPEGIDILVTHTPPVGHGDLCCSGVRAGCVELLSTVQQRVRPKYHVFGHVHEGYGITSDGRIIFVNASTCDINYLPNNAPIVFDVTLPPGFRKDLEHHHHHH")
"soluble"

----------
assay: soluble on expression in E. coli; label from the status in PepcDB or PDB records
parameter-measured: soluble on expression in E. coli

>>> observed("MSLASIMFGVFVHALECSRPVGLVQAKLLLWTLTASIMVIILSEEGEVAEQLEFFPVQSPCRGICQSDERGFCRGCFRSRDERFNWNKMSDGEKQEVLRLCRQRLMRKLRANKPASSDEPEQPSLFEGHHHHHH")
"not soluble"
>>> observed("AEPVKVGSKIDTEGALLGNMIQQVLESHGVKTINKIQLGTTPVVRGAIVAGELDIYPEYTGNGAFFFKDENDPAWKNAQQGYEKVKRLDQEKHQLVWLTPAPANNTWTIAVRQDLAEKNKLTSLADLSRYLKQGGEFKLAASAEFIERPDALPAFEKAYGFNLNQNQLLSLAGGDTAVTIKAAAQQTSGVNAAMAYGTDGPVAALGLQTLSDPQGVQPIYAPTPVVREAVLKAYPQIADWLQPVFASLDEKTLQQLNARIAVEGQDAKRVAADYLQQKGLLK")
"not soluble"
>>> observed("MAHHHHHHMSKKERYKIWKRIPKCELHCHLDLCFSADFFVSCIRKYNLQPNLSDEEVLDYYLFAKGGKSLGEFVEKAIKVADIFHDYEVIEDLAKHAVFNKYKEGVVLMEFRYSPTFVAFKYNLDIELIHQAIVKGIKEVVELLDHKIHVALMCIGDTGHEAANIKASADFCLKHKADFVGFDHGGHEVDLKEYKEIFDYVRESGVPLSVHAGEDVTLPNLNTLYSAIQVLKVERIGHGIRVAESQELIDMVKEKNILLEVCPISNVLLKNAKSMDTHPIRQLYDAGVKVSVNSDDPGMFLTNINDDYEELYTHLNFTLEDFMKMNEWALEKSFMDSNIKDKIKNLYF")
"not soluble"
>>> observed("MHHHHHHSSGVDLGTENLYFQSGVVTHEQFKAALRMVVDQGDPRLLLDSYVKIGEGSTGIVCLAREKHSGRQVAVKMMDLRKQQRRELLFNEVVIMRDYQHFNVVEMYKSYLVGEELWVLMEFLQGGALTDIVSQVRLNEEQIATVCEAVLQALAYLHAQGVIHRDIKSDSILLTLDGRVKLSDFGFCAQISKDVPKRKSLVGTPYWMAPEVISRSLYATEVDIWSLGIMVIEMVDGEPPYFSDSPVQAMKRLRDSPPPKLKNSHKVSPVLRDFLERMLVRDPQERATAQELLDHPFLLQTGLPECLVPLIQLYRKQTSTC")
"soluble"
>>> observed("MGSDKIHHHHHHVPMGKLIASLVDIVKKNKFVDDTQKALFDNFENTKRVNVYIDDLDRGWEGRKEDIRRISALLNAVRDISNEMDNVHFMISLRSDVYYLVRTSDESTDKISGSVIWYTWDRHQILALLAKRVETFFGRDISENSLMGMHQSKIAQYLDPIMTQHFEGKGKWENAPIYRILMSLIRNRPRDLVMICTLAARNARKKGRSKILTEDLQSIFEDYSLERIQDIENEFKSELPEIRRLLFALKPSAKKSSKFSDLYVYTTDQVEAKIQSASANAPFYFSNNNKQATSEELHYFLYKINFLTARRKNKDDVLVRKTFEENKYLTGRFVDFGFGWEVHPAYRWALEPDDSESIYARLDLLDFE")
"not soluble"
>>> observed("MSLRDEQEIYNLVLNIANQDKRIEAVLLNGSRANPNVPKDDFQDYDIVFVTNFIEDIISDTNYHKKFGDILIMQKPNEFRNKTEYNCFAYLMQFQDLTRIDLRLIKPEFLEDYLDDAFSKVLLDKKNKYLDYNFERSSLYETKQLSEDEINKILNEIYWVSTYVVKGIARNDIIYSEFMISNPIKNAFIKLLKQKILIEKELDSLSFGKLDKDILQYITDKDQLLKIFSNKSLKDIEANLRFLLDETNQMAKYISINRKLNLNQGEYQSAMKFMNIFLSNSYQNFNEGHHHHHH")
"soluble"
>>> observed("MISWEIEELDREIGKIKKHSLILIHEEDASSRGKDILFYILSRKLKSDNLVGMFSISYPLQLIIRILSRFGVDVIKYLENHRLAIVDTFGSFHGIKATMPGVWYLEGMLSSETLPIKYAKAVEDHKKVWMDLNLFEGRELYGFAISMSGYLEVFTPEETLRYLETSAEVRYGHPAYKKYPRGTNFWLWEGVKDKRVLLSVYRRADYVLKTRSSLGENGIKRELLVIKTPKPIEELVRFEYEFKGNEPKLRRVD")
"soluble"
>>> observed("MTYVDGFVLPVPEGKIDAYRQMAESAGKIWMEHGALQYKECVLEDAKPEMPEDAPETCKITPFGKLAGTKDGETVIFAFIVYKSREHRDEVNKKVMADPRMQEACDENNMPFDPSRMAYGGFKALVDL")
"not soluble"
>>> observed("LLQHAHNPVNWYSWSPEAFSKAKSEDKPIFLSIGYSTCHWCHVMERESFEDDDVAEVLNRSFVSIKVDREERPDIDEIYMNVCTAITGSGGWPLTIVMTPEQKPFFAGTYIPKNNRMGMQGLISLLENIEYQWKENQNELVEIGDKIVSSLNKDRKT")
"not soluble"
>>> observed("MLTIARRFSGSSICRKQITVGSNNIQVIKNIQDREYEAIWKTIGSTRSDLKKDDIKKFKEAWGNDYHQTLTFLKDSDRLIASNSHVVFRPLKDSKGLENLVFRGNLWISPDVRGSEIMDITDKQSYDVGFSVGNNSMAYATKKTMDQYKNLTGSMDHLHKYYVSNYDFGDLCIPKDLDTSGIVVKNARDVPDTDILKYDAKVFKYERSKYVLGQIREDFGRVAYNEKGDVIGIGAISVYPSGECAITPMYADDIRIARTILKNILEEMTLDAEKYWRLQIRSHDQHTGSYGWIRPFLSTMTHRSEVCTLMCDHKEKGMDFSKVYSTFHADNCPI")
"not soluble"
>>> observed("MSIFDHYQSRYEAAKDEEMSLQEFLALCKDDKSAYANAAERLLMAIGEPEIIDTAKDPRLSRIFSNRVISRYETFKDFYGMEDAIEQIVSYLKHAAQGLEERKQILYLLGPVGGGKSSLAEKLKSLMEAMPIYVLSANGERSPVNDHPFCLFKATEDGEILKTDYGIEQRYLRSIMSPWAAKRLHEFGGDITKFKVMKVRPSILDQIGIAKTEPGDENNQDISSLVGKVDIRKLEHYSQDDPDAYSYSGALCKANQGLMEFVEMFKAPIKVLHPLLTATQEGNFNGTEGLSAIPFDGMILAHSNESEWQTFRNNKNNEAFLDRVYIVKVPYCLRVSEEVKIYQKLLENSELSQAPCSPSTLETLAQFSILSRLKEPENSS")
"not soluble"
